assay: in vitro; conditions: bladder tumor tissue
Readout type: fraction unbound
Just the number, please.

[ask] Tell me fraction unbound reported for "COc1cc(OC)cc(N(CCNC(C)C)c2ccc3ncc(-c4cnn(C)c4)nc3c2)c1"
[reply] 0.4

---

assay: in vivo; conditions: female, Sprague-Dawley, rat, C96 h
Readout type: concentration at 96 h
Mention the unit after the number when you answer.

[ask] Please report the measured concentration at 96 h for "COc1cc(OC)cc(N(CCNC(C)C)c2ccc3ncc(-c4cnn(C)c4)nc3c2)c1"
[reply] 56.9 ng/mL

---

assay: in vitro; settings: minipig, bladder tissue
Readout type: fraction unbound
Just the number, please, no unit attached.

[ask] Assign fraction unbound to the following record: "COc1cc(OC)cc(N(CCNC(C)C)c2ccc3ncc(-c4cnn(C)c4)nc3c2)c1"
[reply] 0.79
